- Organism: Oryctolagus cuniculus
- Protocol: Translational activity in Flexi rabbit reticulocyte lysate assessed as luciferase mRNA activity after 60 mins relative to m7GpppG
- Format: functional
Assay Readout: Ratio

C[n+]1cn([C@@H]2O[C@H](COP(=O)([O-])OP(=O)(S)OP(=O)(O)OC[C@H]3O[C@@H](n4cnc5c(=O)[nH]c(N)nc54)[C@H](O)[C@@H]3O)[C@@H]3OC(C)(C)O[C@H]32)c2nc(N)nc(O)c21 (mixture of isomers; 2a) :: 1.33
C[n+]1cn([C@@H]2O[C@H](COP(=O)([O-])OP(=O)(S)OP(=O)(O)OC[C@H]3O[C@@H](n4cnc5c(=O)[nH]c(N)nc54)[C@H](O)[C@@H]3O)[C@@H]3OC(C)(C)O[C@H]32)c2nc(N)nc(O)c21 (mixture of isomers; 2b) :: 1.16

(a) CO[C@H]1[C@@H](O)[C@H](n2c[n+](C)c3c(O)nc(N)nc32)O[C@@H]1COP(=O)(O)OP(=O)([O-])OP(=O)(O)OC[C@H]1O[C@@H](n2cnc3c(=O)[nH]c(N)nc32)[C@H](O)[C@@H]1O
(b) C[n+]1cn([C@@H]2O[C@H](COP(=O)(O)OP(=O)([O-])OP(=O)(O)OC[C@H]3O[C@@H](n4cnc5c(=O)[nH]c(N)nc54)[C@H](O)[C@@H]3O)[C@@H]3OC(C)(C)O[C@H]32)c2nc(N)nc(O)c21
## Task Task for the reader: decide whether a or b has the larger Ratio. Indicate your choice by writing its label.
## Result a

###

- Target Or System: Eukaryotic translation initiation factor 4E (Mus musculus) (UniProt P63073)
- Sequence (P63073 whole entry): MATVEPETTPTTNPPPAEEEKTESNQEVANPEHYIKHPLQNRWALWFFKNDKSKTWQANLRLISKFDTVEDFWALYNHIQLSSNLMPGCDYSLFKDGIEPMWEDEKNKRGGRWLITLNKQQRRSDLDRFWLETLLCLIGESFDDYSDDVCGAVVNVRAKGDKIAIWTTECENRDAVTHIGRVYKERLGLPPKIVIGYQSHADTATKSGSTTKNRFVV
- Protocol: Binding affinity to mouse eIF4E by fluorescence quenching assay
Assay Readout: Ka (µM⁻¹)

Solved entries:
C[n+]1cn([C@@H]2O[C@H](COP(=O)([O-])OP(=O)(S)OP(=O)(O)OC[C@H]3O[C@@H](n4cnc5c(=O)[nH]c(N)nc54)[C@H](O)[C@@H]3O)[C@@H]3OC(C)(C)O[C@H]32)c2nc(N)nc(O)c21 (mixture of isomers; 2a) :: 5.6
C[n+]1cn([C@@H]2O[C@H](COP(=O)([O-])OP(=O)(S)OP(=O)(O)OC[C@H]3O[C@@H](n4cnc5c(=O)[nH]c(N)nc54)[C@H](O)[C@@H]3O)[C@@H]3OC(C)(C)O[C@H]32)c2nc(N)nc(O)c21 (mixture of isomers; 2b) :: 9.2

(a) CO[C@H]1[C@@H](O)[C@H](n2c[n+](C)c3c(O)nc(N)nc32)O[C@@H]1COP(=O)(O)OP(=O)([O-])OP(=O)(O)OC[C@H]1O[C@@H](n2cnc3c(=O)[nH]c(N)nc32)[C@H](O)[C@@H]1O
(b) C[n+]1cn([C@@H]2O[C@H](COP(=O)(O)OP(=O)([O-])OP(=O)(O)OC[C@H]3O[C@@H](n4cnc5c(=O)[nH]c(N)nc54)[C@H](O)[C@@H]3O)[C@@H]3OC(C)(C)O[C@H]32)c2nc(N)nc(O)c21
## Task Task for the reader: decide whether a or b has the larger Ka. Indicate your choice by writing its label.
## Result a
